Test: Ex vivo biodistribution in Daudi xenograft-bearing mice
Details: male, NOD.Cg-Rag1tm1Mom Il2rgtm1Wjl/SzJ (NRG), mouse, intestine, iv, total radioactivity, Intestine uptake, 2 h p.i., mean
Where a SMILES comes first, the peptide text is derived from it. Side-chain parts run from the residue outwards. [ ]: non-standard residue; d: D form. The star is where a group is joined. DOTA = O=C(O)CN1CCN(CC(=O)O)CCN(CC(=O)*)CCN(CC(=O)O)CC1; 2Nal = N[C@@H](Cc1ccc2ccccc2c1)C(=O)O; dNMeOrn = CN[C@H](CCCN)C(=O)O; 4Amb = NCc1ccc(C(=O)O)cc1
value.type: tissue uptake at 2 h
State the result as a value with its unit after it.

Recorded result, CN1C(=O)[C@@H](Cc2ccc(O)cc2)NC(=O)CNC(=O)[C@H](Cc2ccc3ccccc3c2)NC(=O)[C@H](CCCNC(=N)N)NC(=O)[C@H]1CCCNC(=O)c1ccc(CNC(=O)CN2CCN(CC(=O)O)CCN(CC(=O)O)CCN(CC(=O)O)CC2)cc1 [[68Ga]Ga-Pentixafor, metal not drawn] (cyclo([dY][dNMeOrn]([4Amb-DOTA])R[2Nal]G)) , tissue uptake at 2 h: 0.2 %ID/g

###

Test: Ex vivo biodistribution in Daudi xenograft-bearing mice
Details: male, NOD.Cg-Rag1tm1Mom Il2rgtm1Wjl/SzJ (NRG), mouse, spleen, iv, total radioactivity, Spleen uptake, 1 h p.i. blocked with LY2510924, mean
Where a SMILES comes first, the peptide text is derived from it. Side-chain parts run from the residue outwards. [ ]: non-standard residue; d: D form. The star is where a group is joined. DOTA = O=C(O)CN1CCN(CC(=O)O)CCN(CC(=O)*)CCN(CC(=O)O)CC1; 2Nal = N[C@@H](Cc1ccc2ccccc2c1)C(=O)O; dNMeOrn = CN[C@H](CCCN)C(=O)O; 4Amb = NCc1ccc(C(=O)O)cc1
value.type: tissue uptake at 1 h
The reply must contain the numeric value and, after it, the unit.

Note to self: tissue uptake at 1 h recorded for CN1C(=O)[C@@H](Cc2ccc(O)cc2)NC(=O)CNC(=O)[C@H](Cc2ccc3ccccc3c2)NC(=O)[C@H](CCCNC(=N)N)NC(=O)[C@H]1CCCNC(=O)c1ccc(CNC(=O)CN2CCN(CC(=O)O)CCN(CC(=O)O)CCN(CC(=O)O)CC2)cc1 [[68Ga]Ga-Pentixafor, metal not drawn] (cyclo([dY][dNMeOrn]([4Amb-DOTA])R[2Nal]G)) was 0.59 %ID/g

###

Assay: Ex vivo biodistribution in Daudi xenograft-bearing mice
Conditions: male, NOD.Cg-Rag1tm1Mom Il2rgtm1Wjl/SzJ (NRG), mouse, adrenals, iv, total radioactivity, Adrenals uptake, 1 h p.i. blocked with LY2510924, mean
Where a SMILES comes first, the peptide text is derived from it. Side-chain parts run from the residue outwards. [ ]: non-standard residue; d: D form. The star is where a group is joined. DOTA = O=C(O)CN1CCN(CC(=O)O)CCN(CC(=O)*)CCN(CC(=O)O)CC1; 2Nal = N[C@@H](Cc1ccc2ccccc2c1)C(=O)O; dNMeOrn = CN[C@H](CCCN)C(=O)O; 4Amb = NCc1ccc(C(=O)O)cc1
value.type: tissue uptake at 1 h (%ID/g)
Give bare numbers, in %ID/g.

Sure, the documented tissue uptake at 1 h for CN1C(=O)[C@@H](Cc2ccc(O)cc2)NC(=O)CNC(=O)[C@H](Cc2ccc3ccccc3c2)NC(=O)[C@H](CCCNC(=N)N)NC(=O)[C@H]1CCCNC(=O)c1ccc(CNC(=O)CN2CCN(CC(=O)O)CCN(CC(=O)O)CCN(CC(=O)O)CC2)cc1 [[68Ga]Ga-Pentixafor, metal not drawn] (cyclo([dY][dNMeOrn]([4Amb-DOTA])R[2Nal]G)) is 0.38
